target: Aldehyde dehydrogenase 1A1 (Homo sapiens) (UniProt P00352); test: qHTS for Inhibitors of the Aldehyde Dehydrogenase Family (ALDH1A1) Confirmatory screens (AID 2061316); conditions: ALDH inhibition qHTS; series mostly up to 47.3 µM; also: nearly all actives have a fitted effect of over 65% in size
Records with an inconclusive call do not appear. Active and inactive are the calls of the source. Calls follow the shape of the dose curve; as a rule, active = well fitted inhibition curve with a large enough effect; inconclusive = small, poorly fitted or top-dose-only effect; inactive = no such curve, though single readings can be large or run the other way.
Possible outcomes: label 1 for active, label 0 for inactive

INSERT INTO measurements (compound, assigned_class) VALUES
  ('C=C1C(=O)O[C@@H]2C3C(=C(C)[C@@H](O)[C@@H](OC(=O)/C(=C/C)COC(C)=O)[C@@H]12)C(=O)[C@H]1O[C@@]31C (stereo partly specified)', 'label 0'),
  ('CCOC(=O)c1ccc(O)c2ncc(-c3ccc(C(=N)N)cc3)cc12', 'label 0'),
  ('C/C=C/C=C/c1cc2c(C=O)c(O)c(CC=C(C)C)cc2o1', 'label 1'),
  ('N#CN1CCC(NS(=O)(=O)c2ccc(F)cc2)CC1', 'label 0'),
  ('Cn1ncc(-c2nnc(-c3ccccc3)n2CCCn2ccnc2)c1N', 'label 0'),
  ('Nc1ccc2c(c1)S(=O)(=O)NC2=O', 'label 0');
